target: Cytochrome P450 3A4 (Homo sapiens); experiment: qHTS Assay for Activators of Cytochrome P450 3A4 (AID 885); conditions: recombinant CYP3A4, Luciferin-PPXE luminescence, 60 min; series mostly up to 57.1 µM; also: nearly all actives have a fitted effect of over 65% in size; also: potency is read from the fitted curve at half-maximal effect
The source made the active and inactive calls. Calls follow the shape of the dose curve; as a rule, active = well fitted activation curve with a large enough effect; inconclusive = small, poorly fitted or top-dose-only effect; inactive = no such curve, though single readings can be large or run the other way.
Readout Name: Potency

Examples with answers:
1) N=C1Sc2ccccc2C2=NCCCN12
inactive
2) CN(C)c1ccc(-c2nc(NCCN3CCOCC3)c3ccccc3n2)cc1
inactive
3) Clc1ccccc1-c1nc(N2CCNCC2)c2ccccc2n1
inactive
4) COc1ncc2nc(C)c(=O)n(C3CC3)c2n1
inactive
5) O=C(Oc1ccccc1)N1CCC2(CC1)CCN(c1ncccn1)CC2
6.31 µM (active)

Look at this compound and give its reported Potency. Cc1nc(N2CCOCC2)c2nc(-c3ccccc3)n(CCCN3CCCCC3C)c2n1 (stereo unspecified)
inactive

----------
experiment: qHTS for Inflammasome Signaling Inhibitors: IL-1-beta AlphaLISA screen against the NCATS CANVASS Library (AID 1347379); details: THP-1 LPS/ATP, IL-1B AlphaLISA secretion, 16 h; series mostly up to 57.5 µM;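 also: human THP-1 cells primed with LPS then triggered with ATP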
Records with an inconclusive call do not appear. The source made the active and inactive calls. Calls follow the shape of the dose curve; as a rule, active = well fitted inhibition curve with a large enough effect; inconclusive = small, poorly fitted or top-dose-only effect; inactive = flat fitted curve, though single readings scatter.
Pick from true (1) for active, false (0) for inactive when you respond.

1. C[C@@]12CCC[C@@](C)(C(=O)O)[C@H]1C[C@@H](O)[C@@]13C[C@@H](CC[C@@H]21)[C@](C)(O)C3
false (0)
2. O[C@H]1c2ccccc2-c2c3c(cc4c2[C@@H]1NCC4)OCO3
true (1)
3. C=C(C)C(=O)O[C@H]1C[C@@]2(C)OC(=CC2=O)/C(C)=C\[C@H]2OC(=O)C(=C)[C@H]12
true (1)
4. CCC(=O)N[C@@H](C[C@H](C)C(Cl)(Cl)Cl)C(=O)N1C(=O)C=C(OC)[C@@H]1CC(C)C
false (0)
5. C/C=C/[C@H]1[C@H]2C(=O)c3c(O)c(C)c(O)c(C)c3[C@]1(C(=O)O)C(=O)C=C2C
false (0)

Tell me the assay call for CC(C)C[C@@H]1c2c(O)c(C=O)c(O)c(C=O)c2O[C@]2(C)C=C[C@@H](C(C)C)C[C@H]12 please.
false (0)

Follow-up item: C/C=C(/CO)C(=O)O[C@@H]1[C@H](O)[C@@H](C(=O)OC)O[C@@H]2C[C@H]3OC(n4cnc5c(N)ncnc54)[C@H](OC)[C@H]3O[C@@]12O (stereo partly specified)
false (0)

Let us now turn to CC(=O)O[C@H]1c2ccccc2-c2c3c(cc4c2[C@@H]1N(C(C)=O)CC4)OCO3
false (0)

How about this compound: C/C1=C/[C@@H](C)[C@H](O)C/C=C/CC/C=C/C(=O)O[C@@H]1[C@H](C)C(=O)CCCC1CC(=O)NC(=O)C1
false (0)

Consider next the compound O=c1cc(-c2ccc(O)cc2)oc2cc(O)c([C@@H]3OC(CO)[C@H](O)[C@@H](O)[C@H]3O)c(O)c12 (stereo partly specified) in the same way.
false (0)

Note, next up: CO/C=C/C(=O)c1cc2cnc3c(N)cc(=NC(=O)C(C)C)c([nH]1)c23
true (1)

----------
assay: qHTS drug screen for cell cycle checkpoint inhibitors in PARPi-resistant BRCA-mutant ovarian cancer cell lines. (AID 1963452); conditions: PEO1/OlaR viability, CellTiter-Glo luminescence, 96 h; measured here: PEO4 Z-AUC; stronger effect = lower value
Rule: Z-AUC below 0.04 gives y. Equal to or above 0.04 gives n.

Worked set:
1) Nc1nc(OC(c2ccc(-c3cccc(F)c3)cc2)C(F)(F)F)cc(-c2ccc(C[C@@H](N)C(=O)O)cc2)n1 (some centres undefined)
n
2) O=C(Nc1nccs1)C(c1cc(F)ccc1O)N1Cc2ccccc2C1=O (centres undefined)
y
3) OC1CCC([C@H](O)C[C@H]2c3c(F)cccc3-c3cncn32)CC1 (some centres undefined)
n
4) Nc1nc(-c2nn(Cc3ccccc3F)c3ncccc23)ncc1C1CC1
n
5) C=CCNC1=C2CC(C)CC(OC)C(O)C(C)/C=C(\C)C(OC(N)=O)C(OC)/C=C/C=C(\C)C(=O)NC(=CC1=O)C2=O (centres undefined)
y

Could you please tell me whether Z-AUC recorded for NC(=O)/C(=C/n1cnc(-c2cc(C(F)(F)F)cc(C(F)(F)F)c2)n1)c1cncnc1 is less than 0.04?
y

Also, O=C(O)CCCCN(CCc1ccccc1OCc1ccc(CCc2ccccc2)cc1)Cc1ccc(C(=O)O)cc1 please.
n

# repeat for Cc1ccc(-n2c(C)cc(-c3nnc4n3CCCCC4)c2C)cc1
n
